Where do the numbers come from? From patent US11046691B1.

# targetOrTestSystem: hMAT2A (Homo sapiens (Human))
# Sequence (P31153 whole entry): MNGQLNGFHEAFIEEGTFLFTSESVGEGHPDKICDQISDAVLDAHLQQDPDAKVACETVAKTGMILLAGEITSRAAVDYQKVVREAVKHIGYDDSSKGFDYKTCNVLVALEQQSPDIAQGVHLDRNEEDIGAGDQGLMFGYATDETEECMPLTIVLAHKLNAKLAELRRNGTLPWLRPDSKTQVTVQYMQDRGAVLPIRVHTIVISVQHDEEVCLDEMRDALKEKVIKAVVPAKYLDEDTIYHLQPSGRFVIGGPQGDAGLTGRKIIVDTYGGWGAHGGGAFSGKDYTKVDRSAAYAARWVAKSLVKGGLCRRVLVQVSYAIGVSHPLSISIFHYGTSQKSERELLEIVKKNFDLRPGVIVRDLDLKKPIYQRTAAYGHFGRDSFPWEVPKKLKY
# assayMethodText: Malachite Green Assay (MAT2A enzyme inhibition)
# Format: biochemical
# experimentalContext: hMAT2A 50 nM, substrates 500 uM each, 1 hour
pIC50: −log10 of the molar value.
Recorded pIC50 by entry

Cc1c(Cl)ccc2c(N(C)C)nc(=O)n(-c3ccccc3)c12 : 5.00 to 6.00
CN(C)c1nc(=O)n(-c2cccc(CO)c2)c2cc(Cl)ccc12 : > 6.70
CNc1nc(=O)n(-c2ccccc2)c2cc(Cl)cc(OC)c12 : > 6.70

Sure, the documented pIC50 for O=c1nc(N2CC[C@H](O)C2)c2ccc(Cl)cc2n1-c1ccccc1 is > 6.70

Lab note: CN(C)c1nc(=O)n(-c2cc(O)cc(F)c2)c2cc(Cl)ccc12 gave pIC50 of > 6.70

So, O=c1nc(N2CCCC2)c2ccc(Cl)cc2n1-c1ccccc1 ? Its pIC50 was > 6.70

Lab book: pIC50 of CN(C)CCNc1nc(=O)n(-c2ccccc2)c2cc(Cl)ccc12 noted as 5.00 to 6.00

pIC50 reported for this compound O=c1nc(N2CCC2)c2ccc(Cl)cc2n1-c1ccccc1 : > 6.70

Reported pIC50 of O=c1nc(N2CCC2)c2ccc(Cl)cc2n1-c1cc(O)cc(F)c1 : > 6.70

The reported value for O=c1nc(N2CCCCC2)c2ccc(Cl)cc2n1-c1ccccc1 in terms of pIC50 is > 6.70

Entry CNc1nc(=O)n(-c2ccccc2)c2cc(C#N)ccc12 ; pIC50 = > 6.70

The recorded pIC50 for entry CNc1nc(=O)n(-c2cncs2)c2cc(Cl)ccc12 equals > 6.70

Per the records, this compound ( CN(C)c1nc(=O)n(-c2cccc(NS(C)(=O)=O)c2)c2cc(Cl)ccc12 ) has pIC50 equal to > 6.70

Value of pIC50 reported for the compound CN1CCN(c2nc(=O)n(-c3ccccc3)c3cc(Cl)ccc23)CC1 is 5.00 to 6.00

Quick note, pIC50 for CN(C)c1nc(=O)n(-c2ccc(F)cc2)c2cc(Cl)ccc12 landed at > 6.70

pIC50 recorded for this compound, COc1cccc(-n2c(=O)nc(N(C)C)c3ccc(Cl)cc32)c1 , is > 6.70

In plain terms, CNc1nc(=O)n(-c2ccccc2)c2cc(C(F)(F)F)ccc12 has a documented pIC50 of > 6.70

Item: CNc1nc(=O)n(-c2ccccc2)c2cc(C)ccc12 | pIC50: > 6.70

The measured pIC50 associated with O=c1nc(NC2COC2)c2ccc(Cl)cc2n1-c1ccccc1 reads 6.30 to 6.70

The reported value for CN(C)CCN(C)c1nc(=O)n(-c2ccccc2)c2cc(Cl)ccc12 in terms of pIC50 is 5.00 to 6.00

* * *

# targetOrTestSystem: hMAT2A (Homo sapiens (Human))
# assayMethodText: Phosphate Sensor Fluorescence Assay (MAT2A enzyme inhibition)
# Format: biochemical
# experimentalContext: L-methionine 500 uM, ATP 500 uM, class symbols
readoutName: IC50

As a guide, the following entries are already answered.
O=c1nc(N2CCOCC2)c2ccc(C(F)(F)F)nc2n1-c1ccccc1Cl : < 200 nM
CC1(C)CCN(c2nc(=O)n(-c3ccccc3)c3cc(Cl)ccc23)C1 : < 200 nM
CNc1nc(=O)n(-c2ccccc2C#N)c2cc(Cl)ccc12 : 200 to 500 nM
O=c1[nH]c(=O)n(-c2ccc3[nH]cnc3c2)c2cc(Cl)ccc12 : 200 to 500 nM

Shifting focus to the compound that follows.
Noted IC50 for O=c1nc(NCC2COC2)c2ccc(Cl)cc2n1-c1ccccc1 , tested on hMAT2A (Homo sapiens (Human)): < 200 nM
